Below, each entry is listed alongside its reported cytotoxicity.
Assay: cytotoxicity in HPDE-C7 cells, cell-based, fluorescence, HTS (AID 430);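 note: cells exposed to compound for 48 hours before viability readout; 0% = vehicle and 100% = reference cytotoxic drug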
Details: HPDE-C7 pancreatic duct cells viability, at 10 µM, active compounds read high
Hit rate of the full screen: of about 63,000 compounds, about 1,100 (1.7%) were called active. The sample holds actives, similar compounds and a random draw of the others, so the mix is not that of the screen. Entries with a potency or affinity are not part of this list.
Readout: cytotoxicity (%)

>  <Molecule>
CCN=C1SC(CC(=O)Nc2ccc(C(F)(F)F)cc2)C(=O)N1CC (stereo unspecified)

>  <Readout>
cytotoxicity

>  <Endpoint value>
-10.9

$$$$
>  <Molecule>
Cc1nnc(SCC(=O)n2c3c(c4ccccc42)CCCC3)s1

>  <Readout>
cytotoxicity

>  <Endpoint value>
-1

$$$$
>  <Molecule>
CCOC(=O)CSc1nnc2n(Cc3ccccc3)c(=O)c3c4c(sc3n12)CCC4

>  <Readout>
cytotoxicity

>  <Endpoint value>
22.6

$$$$
>  <Molecule>
CCCSc1nnc2n(Cc3ccccc3)c(=O)c3c4c(sc3n12)CCC4

>  <Readout>
cytotoxicity

>  <Endpoint value>
52.7

$$$$
>  <Molecule>
O=C(O)CSc1nnc(-c2ccccc2)o1

>  <Readout>
cytotoxicity

>  <Endpoint value>
0.1

$$$$
>  <Molecule>
CC(C)C1Cc2c(sc3c2c(=O)n(Cc2ccccc2)c2nncn32)CO1 (stereo unspecified)

>  <Readout>
cytotoxicity

>  <Endpoint value>
7.1

$$$$

* * *

Assay: cytotoxicity in HPDE-C7 cells, cell-based, fluorescence, HTS (AID 430);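 note: cells exposed to compound for 48 hours before viability readout; 0% = vehicle and 100% = reference cytotoxic drug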
Conditions: HPDE-C7 pancreatic duct cells viability, at 10 µM, active compounds read high
Among all 63,000 compounds or so, about 1,100 (1.7%) were called active. The sample holds actives, similar compounds and a random draw of the others, so the mix is not that of the screen. Results with a measured potency or affinity are listed apart.
Output Y for records whose cytotoxicity is lower than -10%, N for records at or above -10%.

>  <Molecule>
CCC(=O)N1c2ccccc2NC2=C(C(=O)CC(c3ccco3)C2)C1c1ccco1 (stereo unspecified)

>  <Label>
N

$$$$
>  <Molecule>
CCOC(=O)c1[nH]c(C)c(C(=O)N2CCN(C(=O)c3ccco3)CC2)c1C

>  <Label>
Y

$$$$
>  <Molecule>
N#Cc1cc2sc3nnc(-c4ccncc4)n3c2cc1C#N

>  <Label>
Y

$$$$
>  <Molecule>
CCOc1cc2[nH]c(=O)n(CCCCC(=O)NC3CCCCCC3)c(=O)c2cc1OCC

>  <Label>
N

$$$$
>  <Molecule>
Cn1c(=O)n(C)c2cc(NS(C)(=O)=O)ccc21

>  <Label>
Y

$$$$
>  <Molecule>
CCc1[nH]nc2c1C(c1cccc(OC(=O)N3CCOCC3)c1)C(C#N)=C(N)O2 (stereo unspecified)

>  <Label>
Y

$$$$
>  <Molecule>
COc1ccc(CNC(=O)C2CCNCC2)cc1

>  <Label>
N

$$$$
>  <Molecule>
C=CCN1C(=O)C2(c3ccccc31)C1CCCC=C1C(C#N)=C(N)C2(C#N)C#N (stereo unspecified)

>  <Label>
Y

$$$$
>  <Molecule>
COc1ccc(NC(=O)CNc2cccc(C#N)c2)cc1Cl

>  <Label>
N

$$$$
>  <Molecule>
Cc1ccc(NS(=O)(=O)c2cccc(C(=O)Nc3cc(C)on3)c2)cc1

>  <Label>
N

$$$$
>  <Molecule>
CCN(CC)C(=O)CSc1nnc(-c2ccccc2)n1N

>  <Label>
N

$$$$
